The reported numbers originate from PubChem BioAssay (NCATS).

tested on: NIH3T3; assay: Cytotoxic Profiling of Annotated Libraries Using Quantitative High-Throughput Screening (AID 1296008); settings: Five cell lines viability, CellTiter-Glo ATP luminescence, 48-72 h; stronger effect = lower value; further: on the % scale 0 is the no-effect control and ±100 the full control effect
Results filed as inconclusive are left out.
value kind: max response (%)

molecule: NC1CCCCN(c2c(F)cc3c(=O)c(C(=O)O)cn(C4CC4)c3c2Cl)C1 (stereo not drawn)
observed value: 1.34
//
molecule: C/C=C/C=C/C(O)=C1\C(O)=C(C)C(=O)[C@@]2(C)OC(=O)[C@@](C)(NC(=O)/C=C/C(=O)O)[C@@H]12
observed value: -1.65
//
molecule: CC1(C)CC2C=C(C(=O)O)C3COC(=O)C(O)(CO)C23C1 (stereo not drawn)
observed value: -0.118
//
molecule: COc1cc2c(cc1OC)N1C(=O)C[C@]34C=CCN5CC[C@@H]2[C@@H](CC3)[C@]514
observed value: -2.04
//
molecule: COc1cc(O)c2c(c1)C1=CC(O)C(O)CC1(C)OC2=O (stereo not drawn)
observed value: -6.33
//
molecule: C[C@@H]1O[C@@H](O[C@H]2[C@H](O[C@H]3[C@H](O)[C@@H](C(=O)O)O[C@@H](O[C@H]4CC[C@@]5(C)C(CC[C@]6(C)C5CC[C@]57OC[C@@]8(CCC(C)(C)CC85)[C@H](O)C[C@]76C)C4(C)C)[C@@H]3O[C@@H]3O[C@H](CO)[C@@H](O[C@@H]4OC[C@@H](O)[C@H](O)[C@H]4O)[C@H](O)[C@H]3O)O[C@H](CO)[C@H](O)[C@@H]2O)[C@H](O)[C@H](O)[C@H]1O (stereo partly drawn)
observed value: 2.61
//
molecule: C/C=C/C(O)C1OC(=O)CC1Nc1ccc(C(=O)O)cc1 (stereo not drawn)
observed value: 1.46
//
molecule: CC(C)N(CCCCOCC(=O)NS(C)(=O)=O)c1cnc(-c2ccccc2)c(-c2ccccc2)n1
observed value: -0.443
//
molecule: C[C@@H]1O[C@@H](O[C@H]2[C@H](O[C@H]3[C@H](O[C@H]4CC[C@@]5(C)C(CC[C@]6(C)C5CC=C5[C@@H]7CC(C)(C)C[C@@H](O)[C@]7(C)CC[C@]56C)[C@@]4(C)CO)O[C@H](C(=O)O)[C@@H](O)[C@@H]3O)OC[C@H](O)[C@@H]2O)[C@H](O)[C@H](O)[C@H]1O (stereo partly drawn)
observed value: -4.51
//
molecule: [N-]=[N+]=N[C@]1(CO)O[C@@H](n2ccc(=O)[nH]c2=O)[C@@H](O)[C@@H]1O
observed value: -4.26
//
molecule: CC/C=C\C/C=C\C/C=C\CCCCCCCC(=O)OCC(O)COC1OC(CO)C(O)C(O)C1O (stereo not drawn)
observed value: -3.16
//
molecule: C[C@H]1O[C@@H](O[C@H]2CC[C@@]3(C)C(CC[C@]4(C)C3CC=C3C5CC(C)(C)CC[C@]5(C(=O)O)CC[C@]34C(=O)O)C2(C)C)[C@H](O)[C@@H](O)[C@@H]1O (stereo partly drawn)
observed value: 3.7
//
molecule: C=CC1C(OC2OC(CO)C(O)C(O)C2O)OC=C2C(=O)N3C(C(=O)O)Cc4c([nH]c5ccccc45)C3CC21 (stereo not drawn)
observed value: -3.8
//
molecule: c1ccc(N2CCN(CCc3nn[nH]n3)CC2)cc1
observed value: 1.1
//
molecule: COc1c2c(c(C)c3c1C(=O)OC3)OC1(C)CC(O)C(C(C)(C)O)C(C)(CCC(=O)O)C1C2 (stereo not drawn)
observed value: 0.542
//
molecule: CC(C)CC(=O)O[C@@H]1OC=C(CO[C@@H]2O[C@H](CO)[C@@H](O)[C@H](O)[C@H]2O)[C@H]2[C@@H]3O[C@H]3[C@@](O)(CO)[C@@H]12
observed value: 2.35
//
molecule: CC(C)=CC/C=C(\C)[C@H]1CC[C@]2(C)[C@@H]1[C@H](O)C[C@@H]1[C@@]3(C)CC[C@H](O)C(C)(C)[C@@H]3[C@@H](O[C@@H]3O[C@H](CO)[C@@H](O)[C@H](O)[C@H]3O)C[C@]12C
observed value: -21.6
//
molecule: CON(C)C(=O)[C@H](O)[C@H](Cc1ccccc1)NC(=O)c1cc2cc(Cl)ccc2[nH]1
observed value: -9.74
//
molecule: O=C(Nc1ccn[nH]1)c1c(F)cccc1F
observed value: 3.6
//
molecule: CC1OC(OC2C(O)C(OC3CCC4(C)C(CCC5(C)C4CC=C4C6CC(C)(COC7OC(CO)C(O)C(O)C7O)CC(O)C6(C)CCC45C)C3(C)C)OC(C(=O)O)C2O)C(O)C(O)C1OC1OCC(O)C(O)C1O (stereo not drawn)
observed value: -0.449
//
molecule: O=C(O)Cc1cn(C2OCC(O)C(O)C2O[C@@H]2O[C@H](CO)[C@@H](O)[C@H](O)[C@H]2O)c2ccccc12 (stereo partly drawn)
observed value: 2.49
//
molecule: CC1OC(OCC2OC(OC3CCC4(C)C(CCC5(C)C4CC=C4C6CC(C)(C)CCC6(C(=O)OC6OC(CO)C(O)C(O)C6O)CCC45C)C3(C)CO)C(O)C(O)C2O)C(O)C(O)C1O (stereo not drawn)
observed value: 0.258
//
molecule: C=CC(C)(C)c1[nH]c2cc3c(cc2c1CC1NC(=O)C2=CCCN2C1=O)C=CC(C)(C)O3 (stereo not drawn)
observed value: -5.01
